# measurement_target: Env of HIV-1 strain 3415.v1.c1 (HIV-1)
# measurement_description: cell-based or functional assay
The entries below come with measured neutralization IC50 values attached.

>  <binder>
γ46κ18 (antibody, V domains shown) VH: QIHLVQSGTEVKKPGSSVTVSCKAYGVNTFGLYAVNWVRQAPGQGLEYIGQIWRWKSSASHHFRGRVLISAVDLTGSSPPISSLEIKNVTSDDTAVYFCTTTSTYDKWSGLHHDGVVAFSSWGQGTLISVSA VL: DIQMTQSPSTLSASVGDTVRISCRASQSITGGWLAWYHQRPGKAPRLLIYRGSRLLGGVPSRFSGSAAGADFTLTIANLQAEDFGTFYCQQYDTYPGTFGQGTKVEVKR

>  <neutralization IC50>
> 15 µg/mL

$$$$

// next entry
Data request: Given the entry γ59κ18 (antibody, V domains shown) VH: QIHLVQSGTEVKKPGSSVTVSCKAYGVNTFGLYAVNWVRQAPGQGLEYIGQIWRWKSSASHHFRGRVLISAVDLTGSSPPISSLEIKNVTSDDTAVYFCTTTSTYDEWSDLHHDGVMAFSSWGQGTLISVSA VL: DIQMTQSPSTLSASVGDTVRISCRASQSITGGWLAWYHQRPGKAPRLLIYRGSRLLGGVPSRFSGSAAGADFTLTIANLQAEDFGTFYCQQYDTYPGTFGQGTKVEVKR , report its measured neutralization IC50.
Data returned: > 15 µg/mL
